# System: NCI-H23
# protocol notes: NCI tumour cell line growth inhibition, 48 h
Activity calls are given as the source filed them. Cut-off read from the data, not from the text of the source: active = GI50 up to about 1.1 µM and inactive = higher.
assay readout: GI50

For the 8 molecules below, give their GI50 values.
1. CC1NOC(=O)C1/N=N/c1ccccc1Cl (centres undefined)
2. c1ccc(C2C3=C(c4ccccc4CC3)N3c4cc5c(cc4=NC34CCCCC24)Nc2ccccc2N=5)cc1 (centres undefined)
3. C[C@]12CCC3c4ccc(OC(=O)c5ccccc5)cc4CC[C@H]3C1CC[C@@H]2OC(=O)C12OC1CCC2=O (some centres undefined)
4. COC(=O)C1=Cc2cc(OC)c(O)cc2[C@@H](c2ccc(O)c(OC)c2)[C@@H]1C(=O)OC
5. CCOC(=O)c1c(-c2ccc(Br)cc2)ccn1C
6. C=C(C)C(=O)OC1C(C(C)CCCO)=C(CO)CC2OC(=O)C(=C)C21 (centres undefined)
7. CNC(=O)OCC1C2=C(C(=O)C(C)=C(N)C2=O)N2CC3C(N3C)C12OC (centres undefined)
8. COc1cc2c(c(O)c1OC)-c1c(cc(OC)c(OC)c1OC)CC(C)C(C)C2 (centres undefined) [GOMISIN K3]

Given back:
["29.9 µM (inactive)", "9.2 µM (inactive)", "4.73 µM (inactive)", "> 100 µM (inactive)", "> 10 µM (inactive)", "19.3 µM (inactive)", "1.53 µM (inactive)", "49 µM (inactive)"]

Asked: Please give the documented GI50 of O=C1C2Cc3ccccc3CN2C(=O)N1CN1CCN(CN2C(=O)C3Cc4ccccc4CN3C2=O)CC1 (centres undefined)
Given back: > 100 µM (inactive)

* * *

# System: MOLT-4
# protocol notes: NCI tumour cell line growth inhibition, 48 h
Activity calls are given as the source filed them. Cut-off read from the data, not from the text of the source: active = GI50 up to about 1.1 µM and inactive = higher.
assay readout: GI50

Look over these answered cases.
• O=C(N/C(=C\c1ccccc1)C1Nc2ccccc2C(=O)O1)c1ccccc1 (stereo unspecified) = 18.7 µM (inactive)
• COc1ccc(C2=CC3CCC2C3)cc1 (stereo unspecified) = > 100 µM (inactive)
• CCOP(=O)(OCC)/C(C#N)=C/c1ccccn1 = > 100 µM (inactive)
• COCCOCCOCCOc1cccc2c1C(=O)c1cccc(OCCOCCOCCOC)c1C2=O = 71.8 µM (inactive)
• Cc1c(-c2nc3ccccc3[nH]2)c(=O)n(-c2ccccc2)n1C = > 100 µM (inactive)

Give me GI50 for each of these compounds, listed below.
1. CC1=NC(C)(C)[N+]([O-])=C1
2. CC1CN(C(=O)CN2CCC(CCCCN(C)C)CC2)c2ccccc2NC1=O (stereo unspecified)
3. NS(=O)(=O)c1cc(C(=O)O)c(Cl)c([N+](=O)[O-])c1Cl
4. CC[N+](CC)(CC)/C(=N\S(=O)(=O)c1ccc(Cl)cc1)[N-]S(=O)(=O)c1cc(C)c(Cl)cc1S
5. N#CCCN(CCNc1ccccc1)C(=O)Nc1ccc(NC(=O)N(CCC#N)CCNc2ccccc2)cc1
6. O=c1c2c(F)c(F)c(F)c(F)c2sc2nccn12

Given back:
> 10 µM (inactive)
> 100 µM (inactive)
> 100 µM (inactive)
2.51 µM (inactive)
> 100 µM (inactive)
3.01 µM (inactive)

* * *

# Test system: CAKI-1
# protocol notes: NCI tumour cell line growth inhibition, 48 h
Calls of active or inactive are those of the source. Rule as the data show it: active = GI50 up to about 1.1 µM and inactive = higher.
Can you tell me GI50 for the items I'm about to list?

• CSC(=S)N/N=C(\C)c1ccc(S(=O)(=O)N(C)c2ccccc2)cc1 = 50.5 µM (inactive)
• O=[N+]([O-])c1ccc(/C(=C\c2ccccc2)Cn2ccnc2)cc1 = 3.77 µM (inactive)
• COCOc1c(C(O[Si](C)(C)C(C)(C)C)c2cnc(Sc3ccccc3)n2C)ccc(OC)c1OC (centres undefined) = 3.03 µM (inactive)
• C=C(CC[C@@H](C(=O)O)[C@H]1[C@H](O)C[C@@]2(C)C3=CC[C@@H](C(=C)C)[C@](C)(CCC(=O)O)C3=CC[C@]12C)C(C)C = 15.2 µM (inactive)
• CC(C)(C)C1CCC2c3c([nH]c4ccccc34)C3C(=O)N(c4ccc(C#N)cc4)C(=O)C3C2C1 (centres undefined) = 12.3 µM (inactive)

Hi! Can you tell me GI50 for each of these compounds?
1. CC(C)=CCC[C@@H](C)C1=C(N)C(=O)C(C)=C(O)C1=O
2. Cn1cc(-c2ccc3c4ccccc4n(C)c3c2)c2ccccc21
3. O=C(N/C(=C\c1ccccc1)C1Nc2ccccc2C(=O)O1)c1ccccc1 (centres undefined)
4. COC(=O)N(C(=O)OC)C(C(=O)O)C(C)C (centres undefined)
5. C=CCNC(=O)NNC(O)(C(=O)OCC)C(F)(F)F (centres undefined)
6. NC1CNC(=O)c2c(Cl)sc(Cl)c21 (centres undefined)
7. O=C(OCCN=c1c2ccccc2ccc2ccccc12)c1cc([N+](=O)[O-])cc([N+](=O)[O-])c1
8. Cc1ccc(-n2cc(-c3ccc(Cl)cc3)c3c(=N)n(N)cnc32)cc1

Given back:
35.2 µM (inactive)
> 100 µM (inactive)
> 100 µM (inactive)
> 100 µM (inactive)
> 100 µM (inactive)
> 100 µM (inactive)
> 100 µM (inactive)
18.5 µM (inactive)

* * *

# Tested on: CCRF-CEM
# protocol notes: NCI tumour cell line growth inhibition, 48 h
Active and inactive are the calls of the source. Cut-off read from the data, not from the text of the source: active = GI50 up to about 1.1 µM and inactive = higher.
assay readout: GI50

// worked examples, GI50 included
- C=C(C)C(=O)OC1C(C(C)CCCO)=C(CO)CC2OC(=O)C(=C)C21 (stereo unspecified): 12.6 µM (inactive)
- COC(=O)[C@]12CC3C=CC1N(C3)C(CBr)c1c2n(S(=O)(=O)c2ccccc2)c2ccccc12 (stereo partly specified): 47.6 µM (inactive)
- Cc1c(-c2ccccc2)c(C#N)c2nnn(-c3ccccc3)c(=O)n12: 34.8 µM (inactive)

Items follow; give GI50 for each.
1. COC(=O)CCc1cc(OC)c(O)c(C(Cc2ccc(OC)c(OC)c2)C(=O)OC)c1 (stereo unspecified)
2. S=c1nc2c(c[nH]1)C1c3ccccc3C2c2ccccc21
3. CCCn1cc2c(SC)nc(SC)nc2n1

Given back:
1: > 100 µM (inactive); 2: 55 µM (inactive); 3: > 100 µM (inactive)

* * *

# Tested on: DU-145
# protocol notes: NCI tumour cell line growth inhibition, 48 h
Activity calls are given as the source filed them. Cut-off read from the data, not from the text of the source: active = GI50 up to about 1.1 µM and inactive = higher.
Exercise: for every item that follows, state its recorded GI50.

* CCC(C#N)NCc1cccc(CNC(C#N)CC)c1 (stereo not given) | > 100 µM (inactive)
* CC(=O)O[C@H]1[C@@H](N2CCOCC2)C[C@H]2[C@@H]3CC=C4C[C@@H](N5CCCC5)CC[C@]4(C)[C@H]3CC[C@@]21C | > 100 µM (inactive)
* Cc1nn(-c2ccccc2)c(C)c1/C=N/NC(=O)c1sc(=S)n(-c2ccccc2)c1N | 9.66 µM (inactive)
* CC(C)=CCC[C@@H](C)C1=C(N)C(=O)C(C)=C(O)C1=O | > 75 µM (inactive)

Let us examine a further case.
Asked: # return recorded GI50 for input CCOC(=O)CCC(C(=O)OCC)n1nnc2ccc(Nc3c(C)[n+]([O-])c4ccc(Cl)cc4[n+]3[O-])cc21 (stereo not given)
Given back: 50.6 µM (inactive)

* * *

# System: COLO 205
# protocol notes: NCI tumour cell line growth inhibition, 48 h
The source made the active and inactive calls. Rule as the data show it: active = GI50 up to about 1.1 µM and inactive = higher.
assay readout: GI50

Completed entries (count: 5):
* CN(C)Cc1cc(/N=N/c2ccccc2)ccc1O | 53 µM (inactive)
* COc1ccc(N2C=Nn3c(nc4sc(C)c(C)c4c3=O)C2)cc1 | > 100 µM (inactive)
* CON1C(=O)C2(CCCCC2)C(=O)C12C=CC(C)CC2 (centres undefined) | > 100 µM (inactive)
* COc1ccc(N2C(=O)C(C#N)=C(SC)C(C#N)C2=O)cc1 (centres undefined) | > 100 µM (inactive)
* COCCOCCOCCOc1cccc2c1C(=O)c1cccc(OCCOCCOCCOC)c1C2=O | > 100 µM (inactive)

Hi team, please reply with GI50 for each item in this list.
1. CN1N=C(c2ccncc2)OC1c1cccc(F)c1 (centres undefined)
2. CCOC(=O)c1cc(NC(=O)c2ccccc2)c(=O)n2c(cc3c(Cl)cccc32)c1O

Given back:
["> 100 µM (inactive)", "> 100 µM (inactive)"]

* * *

# Test system: Hs-578T
# protocol notes: NCI tumour cell line growth inhibition, 48 h
Active and inactive are the calls of the source. Cut-off read from the data, not from the text of the source: active = GI50 up to about 1.1 µM and inactive = higher.
Pick one and only one: 1.0 (active), 0.0 (inactive)

* Cc1cc(NS(=O)(=O)c2ccc(NO)cc2)no1 | 0.0
* CC1OC(O[C@@H]2C=C3CC[C@@H]4[C@H](CC[C@]5(C)[C@@H](c6ccc(=O)oc6)CC[C@]45O)[C@@]3(C)CC2)C(O)C(O)C1O (stereo not given in full) | 1.0
* NCCCC[C@H](N)C(=O)Nc1ccc(-c2nc3ccccc3s2)cc1Cl | 0.0

Asked: Just curious, what result did CC1(C(=O)O)CCC2(C)CCC3(C)C(=CC(=O)C4C5(C)CCC(O)C(C)(C)C5CCC43C)C2C1 (stereo not given) get here?
Given back: 0.0

Asked: Tell me the assay call for C=C(C)C(O)C(O)C[C@@H](C)C1CC[C@]23C[C@]12CCC1[C@@]2(C)CCC(OC(C)=O)C(C)(C)C2CC(OC2OC(CO)C(O)C(O)C2O)[C@]13C (stereo not given in full) please.
Given back: 0.0

Asked: Dear all, I need the recorded test outcome for `COC(=O)c1c(C)[nH]c2c1cc(O)c1nc(C)c(C)nc12` , thank you.
Given back: 0.0

Asked: What outcome does the record of this test show for `O=c1[nH]nc(Cc2ccccc2)[nH]1` ?
Given back: 0.0

Asked: Could you check what this test reported for `COc1cc2c(c3c1c(=O)c1ccccc1n3C)C=CC1(CCCC1)O2` ?
Given back: 0.0

Asked: What classification did `O=C(CCN1CCOCC1)c1ccc(Oc2ccc(F)cc2)cc1` end up with in this test?
Given back: 0.0

Asked: Outcome? `COc1ccc(N2C=Nn3c(nc4sc(C)c(C)c4c3=O)C2)cc1`
Given back: 0.0
